Target: T1, Human CEACAM6-Domain 1-His (expressed in E. coli), wild-type (human)
T1 construct: entry includes the His tag; also called hDOM1
T1 chain: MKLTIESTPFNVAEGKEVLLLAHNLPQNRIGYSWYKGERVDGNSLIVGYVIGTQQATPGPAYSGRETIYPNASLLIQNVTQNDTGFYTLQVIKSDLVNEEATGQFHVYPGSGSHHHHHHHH
Test: SPR, antibody captured, antigen as analyte
Protocol: Surface plasmon resonance (SPR) experiments for quantitative binding analyses were performed either using a Biacore T100, Biacore T200 or a Biacore 4000 instrument (GE Healthcare Biacore, Inc.) equipped with Series S Sensor Chips CM5 (GE Healthcare Biacore, Inc.). Binding assays were carried out at 25° C. with assay buffer HBS-EP+(10 mM HEPES pH 7.4, 150 mM NaCl, 3 mM EDTA, 0.05% Surfactant P20). […]
Some binders, each annotated with its measured Kd.
Field: numeric (nM). Do not append units.

Observe how each entry below is paired with its result.
{"columns": ["binder", "Kd / nM"],
 "data": [
  ["TPP-3187 (antibody, mouse IgG1, V domains shown, murine hybridoma antibody, mouse IgG1; also called 792.15C4F4) VH: QVTLKESGPGILQPSQTLSLTCSFSGFSLTTYGIGVGWIRQPSGKGLEWLAHIWWNDNKYYNTALKSRLTISKDTSNNQVFLKIASVDTADTATYYCARISLPYFDYWGQGTTLTVSS VL: DIVMTQSQKFMSTSVGDRVSITCKASQNVGTAVAWYQQKPGQSPKLLIYSASNRYTGVPDRFTGSGSGTDFTLTISNMQSEDLADYFCQQYNNYPLTFGAGTKLELK", 12],
  ["TPP-3323 (antibody, human IgG2, kappa, V domains shown, human IgG2 chimera; also called TPP-3187X1-hIgG2; hIgG2 chimera of TPP-3187) VH: QVTLKESGPGILQPSQTLSLTCSFSGFSLTTYGIGVGWIRQPSGKGLEWLAHIWWNDNKYYNTALKSRLTISKDTSNNQVFLKIASVDTADTATYYCARISLPYFDYWGQGTTLTVSS VL: DIVMTQSQKFMSTSVGDRVSITCKASQNVGTAVAWYQQKPGQSPKLLIYSASNRYTGVPDRFTGSGSGTDFTLTISNMQSEDLADYFCQQYNNYPLTFGAGTKLELKR", 9]
]}

Write down Kd measured for item TPP-3821 (antibody, human IgG2, kappa, V domains shown, humanized from TPP-3187, human IgG2; also called 3187HU2-hIgG2Kappa) VH: QVTLRESGPALVKPTQTLTLTCTFSGFSLSTYGIGVGWIRQPPGKALEWLAHIWWNDNKYYSTSLKTRLTISKDTSKNQVVLTMTNMDPVDTATYYCARISLPYFDYWGQGTLVTVSS VL: DIQLTQSPSFLSASVGDRVTITCKASQNVGTAVAWYQQKPGKAPKLLIYSASNRYTGVPSRFSGSGSGTEFTLTISSLQPEDFATYYCQQYNNYPLTFGGGTKVEIKR
4.5
